Where do these numbers come from? They come from patent US4169834A.

Answer each item with its documented MIC.
The reply should consist of the numeric value with the unit placed after it.

Observed MIC on Staph. Aureus, entry COC1C=COC2(C)Oc3c(C)c(O)c4c(O)c(c5sc(C)nc5c4c3C2=O)NC(=O)C(C)=CC=CC(C)C(O)C(C)C(O)C(C)C(OC(C)=O)C1C (stereo not shown) , equals 0.78 ng/mL

Observed MIC on Staph. Aureus, entry CCCc1nc2c(s1)c1c(O)c3c(O)c(C)c4c(c32)C(=O)C(C)(OC=CC(OC)C(C)C(OC(C)=O)C(C)C(O)C(C)C(O)C(C)C=CC=C(C)C(=O)N1)O4 (stereo not shown) , equals 0.78 ng/mL

Observed MIC on Staph. Aureus, entry COC1C=COC2(C)Oc3c(C)c(O)c4c(O)c(c5sc(CC(C)C)nc5c4c3C2=O)NC(=O)C(C)=CC=CC(C)C(O)C(C)C(O)C(C)C(OC(C)=O)C1C (stereo not shown) , equals 0.78 ng/mL

Observed MIC on Staph. Aureus, entry COC1C=COC2(C)Oc3c(C)c(O)c4c(O)c(c5scnc5c4c3C2=O)NC(=O)C(C)=CC=CC(C)C(O)C(C)C(O)C(C)C(O)C1C (stereo not shown) , equals 20 ng/mL

Observed MIC on Staph. Aureus, entry CCc1nc2c(s1)c1c(O)c3c(O)c(C)c4c(c32)C(=O)C(C)(OC=CC(OC)C(C)C(OC(C)=O)C(C)C(O)C(C)C(O)C(C)C=CC=C(C)C(=O)N1)O4 (stereo not shown) , equals 0.4 ng/mL

Observed MIC on Staph. Aureus, entry COC1C=COC2(C)Oc3c(C)c(O)c4c(O)c(c5sc(C(C)C)nc5c4c3C2=O)NC(=O)C(C)=CC=CC(C)C(O)C(C)C(O)C(C)C(OC(C)=O)C1C (stereo not shown) , equals 0.78 ng/mL

Observed MIC on Staph. Aureus, entry CCCCCCc1nc2c(s1)c1c(O)c3c(O)c(C)c4c(c32)C(=O)C(C)(OC=CC(OC)C(C)C(OC(C)=O)C(C)C(O)C(C)C(O)C(C)C=CC=C(C)C(=O)N1)O4 (stereo not shown) , equals 1.2 ng/mL
